These entries and their values trace back to PubChem BioAssay.

test: human hepatoma cell viability loss – ATP luminescence, cytotoxicity control for P. falciparum antimalarial project, primary screen (AID 2303); conditions: HepG2 viability, 24-48 h, at 10 µM
Active and inactive are the calls of the source.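 The calls were made as follows: active = inhibition above 50%; inactive = the rest.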
// classify into Yes for active, No for inactive

compound: COc1ccc2nccc(N3C[C@H]4C[C@@H]3CN4CCNCc3ccc4c(n3)NC(=O)CS4)c2n1
class: No

compound: N#Cc1ccc(CN2CCCN(Cc3cccc(NC(=O)c4ccc(-c5ccccc5)cc4)c3)CC2)cc1
class: No

compound: Cc1cccc2[nH]c(-c3ccc(-c4cccc(C(=O)NCCN5CCCC5)c4)s3)nc12
class: No

// query // outcome(item) with item = Cc1nn(CC(C)C)c2sc(C(=O)Nc3nc(-c4ccccn4)cs3)cc12
// result No

// query What do you get for NCc1ccc(CNCc2cccc(-c3ccc(-c4nc5ccc(C(F)(F)F)cc5[nH]4)cc3)c2)cc1 ?
// result No

// query What do you get for Cc1cc(N2CCCC2=O)ccc1-c1ccc(C(=O)N2CCC(Oc3cccc(Cl)c3)CC2)cc1 ?
// result No

// query What do you get for Cc1cc(Nc2ccc(Cl)cc2)n2nc(C(F)(F)F)nc2n1 ?
// result No

// query What do you get for Fc1cccc(Nc2nc(NCc3ccc(OCc4ccccc4)cc3)nc(Nc3cccc(F)c3)n2)c1 ?
// result No

// query What do you get for CCS[C@@H]1O[C@H](COC(=O)c2ccccc2)[C@H](OC(=O)c2ccccc2)[C@H](OC(=O)c2ccccc2)[C@H]1OC(=O)c1ccccc1 ?
// result No

// query What do you get for CCCC(C)NC[C@@H](O)[C@H](Cc1ccccc1)NC(=O)c1cc(C2CCCC2)cc(N2CCCCS2(=O)=O)c1 (stereo partly drawn) ?
// result No
